Target: T1, Full-length human HER3 extracellular domain (ECD) (human, UniProt P21860 20-643)
T1 construct: also called human HER3 ECD; HER-3 ECD full length
T1 sequence (P21860 20-643): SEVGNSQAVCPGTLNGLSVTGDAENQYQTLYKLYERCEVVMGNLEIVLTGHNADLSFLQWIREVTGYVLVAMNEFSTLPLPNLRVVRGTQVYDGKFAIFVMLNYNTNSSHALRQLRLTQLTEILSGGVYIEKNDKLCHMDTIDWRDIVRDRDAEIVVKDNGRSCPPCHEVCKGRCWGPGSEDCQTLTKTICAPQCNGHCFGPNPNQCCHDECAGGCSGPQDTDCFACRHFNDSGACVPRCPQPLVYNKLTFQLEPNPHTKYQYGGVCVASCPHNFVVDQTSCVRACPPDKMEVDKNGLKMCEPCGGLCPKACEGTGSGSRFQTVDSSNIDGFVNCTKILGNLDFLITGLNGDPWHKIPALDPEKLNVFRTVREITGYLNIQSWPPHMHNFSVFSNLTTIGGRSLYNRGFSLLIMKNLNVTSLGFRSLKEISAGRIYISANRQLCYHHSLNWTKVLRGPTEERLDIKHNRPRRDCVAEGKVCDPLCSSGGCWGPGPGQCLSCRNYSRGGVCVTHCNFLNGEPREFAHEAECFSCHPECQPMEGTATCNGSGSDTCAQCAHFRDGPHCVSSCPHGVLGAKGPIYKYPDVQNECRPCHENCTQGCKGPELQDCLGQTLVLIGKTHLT
Test: BIACORE 3000 SPR, mAb captured by anti-human Fc, ECD as analyte, 25 C
Experimental endpoint: koff (s⁻¹)
Your answer should be a plain number; it is taken to be in s⁻¹.

INSERT INTO assay_data (binder, unit_of_measure, value) VALUES
  ('15D5 H3L1 antibody (antibody, V domains shown, Humanized 15D5 variant) VH: QVQLVQSGAEVKKPGASVKVSCKASGYTFTDYNMNWVRQAPGQGLEWMGGINPNYGTTVYNQKFKGKATLTVDQSISTAYMELSRLRSDDTAVYYCARMTTIVPFDYWGQGTTVTVSS VL: DIQMTQSPSSLSASVGDRVTITCRASQDISNYLNWYQQKPGKAPKLLIYYTSTLHSGVPSRFSGSGSGTDYTFTISSLQPEDIATYYCQQGYTLPWTFGGGTKVEIKR', 's⁻¹', 0.000171);

For the next question, use this binder.
Enquiry: Answer with reported koff of 1D9 H0L9 RR antibody (antibody, V domains shown, Humanized RR variant; also called 1D9 HOL9 RR antibody) VH: QVQLVQSGAEVKKPGASVKVSCKASGYTFTSYWMHWVRQAPGQGLEWMGVIDPSDGYSHYNQKFKGRVTMTRDTSISTAYMELSRLRSDDTAVYYCARGLAGTLDYWGQGTTVTVSS VL: DVVMTQSPLSLPVTLGQPASISCRSSQSIVHSSGNTYLQWFQQRPGQSPKLLISKVSNRFSGVPDRFSGSGSGTDFTLKISRVEAEDVGVYYCFQGSHVPWTFGQGTKLEIKR
Return: 0.0144
